Reference for the values: paper PMC5065773

Examples of compounds with documented pIC50 follow.
target: WNV protease (West Nile virus); experiment: In vitro protease assay with fluorogenic substrate Bz-Nle-Lys-Arg-Arg-AMC; type: biochemical
Sequence (Q9Q6P4 1428-1467): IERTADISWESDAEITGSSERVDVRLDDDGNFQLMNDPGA
Sequence (Q9Q6P4 1506-1683): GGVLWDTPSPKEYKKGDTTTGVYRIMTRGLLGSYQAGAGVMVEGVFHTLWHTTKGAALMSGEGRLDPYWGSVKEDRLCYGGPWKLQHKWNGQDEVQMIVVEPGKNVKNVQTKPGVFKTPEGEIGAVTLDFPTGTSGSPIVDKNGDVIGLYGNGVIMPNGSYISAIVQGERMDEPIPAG
In simple prose, pIC50 is minus the logarithm base ten of a concentration in moles per litre.

• Cc1ccc(C(=O)Nc2ccc(S(=O)(=O)O)c3cc(S(=O)(=O)O)cc(S(=O)(=O)O)c23)cc1NC(=O)c1cccc(NC(=O)Nc2cccc(C(=O)Nc3cc(C(=O)Nc4ccc(S(=O)(=O)O)c5cc(S(=O)(=O)O)cc(S(=O)(=O)O)c45)ccc3C)c2)c1 = 5.49

Here is another compound to look at.
Q: Name the recorded pIC50 for `Cc1ccc(C(=O)c2cc(O)c(O)c([N+](=O)[O-])c2)cc1` .
Result: 6.15

* * *

// pIC50 collected for DENV 4 Pro (Dengue virus type 4, UniProt P09866)
In simple prose, pIC50 is minus the logarithm base ten of a concentration in moles per litre.

• Cc1ccc(C(=O)Nc2ccc(S(=O)(=O)O)c3cc(S(=O)(=O)O)cc(S(=O)(=O)O)c23)cc1NC(=O)c1cccc(NC(=O)Nc2cccc(C(=O)Nc3cc(C(=O)Nc4ccc(S(=O)(=O)O)c5cc(S(=O)(=O)O)cc(S(=O)(=O)O)c45)ccc3C)c2)c1 [Compound H, Suramin] = 5.43

Q: Param readout = pIC50; param system = DENV 4 Pro (Dengue virus type 4, UniProt P09866); param query = Cc1ccc(C(=O)c2cc(O)c(O)c([N+](=O)[O-])c2)cc1 [Compound F, Tolcapone] ; response: value
Sequence (P09866 1475-1652): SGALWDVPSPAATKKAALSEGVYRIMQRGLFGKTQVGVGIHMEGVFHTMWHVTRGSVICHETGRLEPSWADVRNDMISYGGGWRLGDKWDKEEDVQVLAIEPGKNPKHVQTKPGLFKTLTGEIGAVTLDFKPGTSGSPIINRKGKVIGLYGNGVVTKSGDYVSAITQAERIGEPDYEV
Result: 6.19

* * *

molecular target: DENV2 protease (Dengue virus type 2, UniProt P14340); experiment: Determination of Ki and kinetics of inhibition; type: biochemical, dengue virus serotype 2 (DENV2)
Sequence (P14340 1476-1653): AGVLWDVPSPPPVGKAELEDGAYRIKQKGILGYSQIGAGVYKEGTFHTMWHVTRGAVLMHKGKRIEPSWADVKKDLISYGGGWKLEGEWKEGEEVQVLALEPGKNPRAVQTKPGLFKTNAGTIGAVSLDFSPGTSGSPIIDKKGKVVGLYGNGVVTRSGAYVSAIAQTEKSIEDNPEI
Examples of compounds with documented pKi follow.
In simple prose, pKi is minus the logarithm base ten of a concentration in moles per litre.

• Cc1ccc(C(=O)c2cc(O)c(O)c([N+](=O)[O-])c2)cc1 = 6.66

Here is another compound to look at.
Q: Name the recorded pKi for `Cc1ccc(C(=O)Nc2ccc(S(=O)(=O)O)c3cc(S(=O)(=O)O)cc(S(=O)(=O)O)c23)cc1NC(=O)c1cccc(NC(=O)Nc2cccc(C(=O)Nc3cc(C(=O)Nc4ccc(S(=O)(=O)O)c5cc(S(=O)(=O)O)cc(S(=O)(=O)O)c45)ccc3C)c2)c1` .
Result: 6.06

* * *

// IC50 collected for DENV 1 Pro (Dengue virus type 1, UniProt P17763)
# unit: µM | format: bare number

• Cc1ccc(C(=O)c2cc(O)c(O)c([N+](=O)[O-])c2)cc1 [Compound F, Tolcapone] = 1.15

Here is another compound to look at.
Q: Name the recorded IC50 for Cc1ccc(C(=O)Nc2ccc(S(=O)(=O)O)c3cc(S(=O)(=O)O)cc(S(=O)(=O)O)c23)cc1NC(=O)c1cccc(NC(=O)Nc2cccc(C(=O)Nc3cc(C(=O)Nc4ccc(S(=O)(=O)O)c5cc(S(=O)(=O)O)cc(S(=O)(=O)O)c45)ccc3C)c2)c1 [Compound H, Suramin] .
Result: 2.76

* * *

test system: DENV2 replicon; test: Renilla luciferase reporter replicon assay in stable BHK-21/DENV2 replicon cells; format: cell-based; conditions: Dengue virus, DENV2, BHK-21, 24 h, read-out: EC50 (μM) DENV2 Replicon
property_measured: EC50 (µM)
# unit: µM | format: bare number

Q: Param readout = EC50; param system = DENV2 replicon; param query = Cc1ccc(C(=O)c2cc(O)c(O)c([N+](=O)[O-])c2)cc1 [Compound F, Tolcapone] ; response: value
Result: 2.29
